All values here come from patent US20240270821A1.

Target: hGIPR (Homo sapiens, UniProt P48546)
Sequence (P48546 22-466): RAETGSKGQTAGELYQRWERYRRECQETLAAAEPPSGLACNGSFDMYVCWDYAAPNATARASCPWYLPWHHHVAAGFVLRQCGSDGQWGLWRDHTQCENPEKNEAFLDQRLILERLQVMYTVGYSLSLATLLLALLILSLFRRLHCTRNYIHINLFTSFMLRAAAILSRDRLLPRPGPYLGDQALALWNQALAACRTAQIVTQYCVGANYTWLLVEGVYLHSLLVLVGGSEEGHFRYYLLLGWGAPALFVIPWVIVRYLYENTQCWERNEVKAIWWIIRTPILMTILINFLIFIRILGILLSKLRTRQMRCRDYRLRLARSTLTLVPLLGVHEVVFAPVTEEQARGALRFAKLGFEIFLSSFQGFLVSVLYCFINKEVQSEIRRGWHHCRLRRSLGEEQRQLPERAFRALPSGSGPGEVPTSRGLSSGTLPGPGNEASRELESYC
Assay: Functional cAMP activity in the presence of 1% HSA
Format: cell-based
Settings: read-out: cAMP Rel EC50, hGIPR
Starred links: 1 amine or outer side, 2 acyl side, 3 side chain; linkers in the order of their positions; H or OH if unused. Non-standard residues stand in square brackets, D forms with d. Groups on a side chain read outwards from the residue. No end group written: not given here. *: point of attachment. C20 diacid = O=C(O)CCCCCCCCCCCCCCCCCCC(=O)*; C18 diacid = O=C(O)CCCCCCCCCCCCCCCCC(=O)*; αMePhe(2-F) = C[C@](N)(Cc1ccccc1F)C(=O)O; γGlu = O=C(O)[C@H](CCC(=O)[*:2])N[*:1]; αMe4Pal = C[C@](N)(Cc1ccncc1)C(=O)O; αMeY = C[C@](N)(Cc1ccc(O)cc1)C(=O)O; 4Pal = N[C@@H](Cc1ccncc1)C(=O)O; αMeL = CC(C)C[C@](C)(N)C(=O)O; αMeS = C[C@](N)(CO)C(=O)O; Orn = NCCC[C@H](N)C(=O)O; AEEA = NCCOCCOCC(=O)O; Aib = CC(C)(N)C(=O)O
Mark fulfilled for EC50 under 10 nM, not fulfilled if at or over.

{"columns": ["substance", "target_entity", "answer_label"],
 "data": [
  ["H-Y[Aib]QGTFTSD[4Pal]SQ[αMeL]LDKK([γGlu-γGlu-C18 diacid])AQ[αMe4Pal]AFIEYLIE[Aib]GPSSGAPPPSGTE-NH2 [Example 1126]", "hGIPR (Homo sapiens, UniProt P48546)", "not fulfilled"],
  ["H-Y[Aib]QGTFTSDFSK[αMeL]LDKK([AEEA-γGlu-C18 diacid])AQ[Aib]AFIEYLLE[Aib]GPSSGAPPPSEG-NH2 [Example 57]", "hGIPR (Homo sapiens, UniProt P48546)", "fulfilled"],
  ["H-Y[Aib]QGT[αMePhe(2-F)]TSD[4Pal][αMeS]I[αMeL]LD[Orn]K([γGlu-γGlu-C18 diacid])AQ[αMe4Pal]EFI[dE][αMeY]LVEGGPSSGAPPPSGE-NH2 [Example 1160]", "hGIPR (Homo sapiens, UniProt P48546)", "fulfilled"],
  ["H-Y[Aib]QGT[αMePhe(2-F)]TSD[4Pal][αMeS]I[αMeL]LD[Orn]K([AEEA-γGlu-C18 diacid])AQ[αMe4Pal]EFI[dE][αMeY]LVEGGPSSGAPPPSGS-NH2 [Example 694]", "hGIPR (Homo sapiens, UniProt P48546)", "fulfilled"],
  ["H-Y[Aib]QGTFTSDFS[Orn][αMeL]LDKK([AEEA-γGlu-C20 diacid])AQ[Aib]AFIEYLLAGGPSSGAPPPSGS[AEEA]-NH2 [Example 83]", "hGIPR (Homo sapiens, UniProt P48546)", "not fulfilled"],
  ["Y[Aib]QGT[αMePhe(2-F)]TSD[4Pal]SI[αMeL]LD[Orn]K([AEEA-γGlu-C18 diacid])AQ[αMe4Pal][Orn]FI[dE][αMeY]LIEGGPSSGEPPPEGT[dE]-NH2 [Example 691]", "hGIPR (Homo sapiens, UniProt P48546)", "fulfilled"],
  ["H-Y[Aib]QGTFTSDYSI[αMeL]LDKIAAK([AEEA-AEEA-γGlu-C20 diacid])QFVQWLIE[Aib]GPSSGEPPPSEG-NH2 [Example 323]", "hGIPR (Homo sapiens, UniProt P48546)", "not fulfilled"],
  ["H-Y[Aib]QGTFTSD[4Pal]SQ[αMeL]LDKK([γGlu-γGlu-C18 diacid])AQ[αMe4Pal]AFIEYLIAGGESSGAPPPSGSEE-NH2 [Example 963]", "hGIPR (Homo sapiens, UniProt P48546)", "not fulfilled"],
  ["H-Y[Aib]QGT[αMePhe(2-F)]TSDYSILLDKIAQK([AEEA-γGlu-C20 diacid])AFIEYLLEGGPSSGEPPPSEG-NH2 [Example 293]", "hGIPR (Homo sapiens, UniProt P48546)", "fulfilled"],
  ["H-Y[Aib]QGTFTSDFS[Orn][αMeL]LDKK([AEEA-AEEA-γGlu-C18 diacid])AQ[Aib]AFIEYLLE[Aib]GPSSGAPPPSGE-NH2 [Example 111]", "hGIPR (Homo sapiens, UniProt P48546)", "not fulfilled"],
  ["H-Y[Aib]QGT[αMePhe(2-F)]TSD[4Pal]SILLD[Orn]K([γGlu-γGlu-C18 diacid])AQ[Aib][Orn]FIE[αMeY]LEEGGPSSGAPPPSGTGE-NH2 [Example 674]", "hGIPR (Homo sapiens, UniProt P48546)", "fulfilled"]
]}
